- Tested on: mosquito larvae
- Test protocol: whole plant or invertebrate
- Condition parameters: Culex pipiens, 24 h, read-out: Mosquito larvae Mortality (%)
Assay readout: mortality at 10 mg/kg (%)
Respond numerically; units are % and should not be typed.

C[C@@H]1N[C@H](C(=O)NN)Cc2c1[nH]c1ccccc21: 40

Incoming: # mortality at 10 mg/kg lookup, item `Cc1nccc2c1[nH]c1cc(OC(=O)[C@@H](NC(=O)OCc3ccccc3)C(C)C)ccc12`
Outgoing: 25

Incoming: # mortality at 10 mg/kg lookup, item COc1ccc2c3c([nH]c2c1)C(C)NCC3 (centres unmarked) [Tetrahydroharmine]
Outgoing: 15

Incoming: # mortality at 10 mg/kg lookup, item `CCCCNC(=O)[C@@H]1Cc2c([nH]c3ccccc23)[C@H](C)N1`
Outgoing: 100

Incoming: # mortality at 10 mg/kg lookup, item `Cc1nccc2c1[nH]c1c([N+](=O)[O-])cccc12`
Outgoing: 30

----------
- Test system: tobacco mosaic virus (TMV)
- Test protocol: Anti-TMV in vivo inactivation
- Parameters: species or system tobacco mosaic virus (host Nicotiana tabacum L.cv.Xanthi NN)
- Condition parameters: treatment dose 100 μg/mL
Assay readout: Relative inhibition rate (%) In vivo inactivation
Respond numerically; units are % and should not be typed.

C/C=C/C=NNC(=O)[C@@H]1Cc2c([nH]c3ccccc23)[C@H](C)N1 [Ic-22]: 8.5
Cc1nccc2c1[nH]c1cc(OC(=O)N(C)C)ccc12 [Ia-6]: 0
C[C@@H]1N[C@H](C(=O)NN=CC(C)(C)C)Cc2c1[nH]c1ccccc21 [Ic-26]: 28.9

Incoming: # Relative inhibition rate (%) In vivo inactivation lookup, item C[C@@H]1N[C@H](C(=O)NN=Cc2ccc(Cl)cc2)Cc2c1[nH]c1ccccc21 [Ic-5]
Outgoing: 35.9

Incoming: # Relative inhibition rate (%) In vivo inactivation lookup, item C[C@@H]1N[C@H](C(=O)NNC(=O)c2ccncc2)Cc2c1[nH]c1ccccc21 [Id-3]
Outgoing: 17.9

Incoming: # Relative inhibition rate (%) In vivo inactivation lookup, item CCOC(=O)c1cc2c([nH]c3ccccc32)c(C)n1 [Ia-10]
Outgoing: 0

Incoming: # Relative inhibition rate (%) In vivo inactivation lookup, item C[C@@H]1N[C@H](C(=O)NN=CC2CCCCC2)Cc2c1[nH]c1ccccc21 [Ic-25]
Outgoing: 36.3

Incoming: # Relative inhibition rate (%) In vivo inactivation lookup, item C[C@@H]1N[C@H](C(=O)NN=Cc2ccc3cc(O)ccc3c2)Cc2c1[nH]c1ccccc21 [Ic-14]
Outgoing: 16.9

Incoming: # Relative inhibition rate (%) In vivo inactivation lookup, item C[C@@H]1N[C@H](C(=O)NN=Cc2ccc3c(c2)OCCO3)Cc2c1[nH]c1ccccc21 [Ic-13]
Outgoing: 15.2

----------
# mortality at 600 mg/kg per record follows
- System: corn borers
- Test protocol: whole plant or invertebrate
- Condition parameters: read-out: Corn borer Mortality (%)
Respond numerically; units are % and should not be typed.

C[C@@H]1N[C@H](C(=O)NC2CCCCC2)Cc2c1[nH]c1ccccc21: 40
C[C@@H]1N[C@H](C(=O)N/N=C/c2ccccc2)Cc2c1[nH]c1ccccc21: 60
Cc1nccc2c1[nH]c1cc(O)ccc12: 45

Incoming: # mortality at 600 mg/kg lookup, item `Cc1nccc2c1[nH]c1c([N+](=O)[O-])cccc12`
Outgoing: 5

Incoming: # mortality at 600 mg/kg lookup, item `Cc1nc(C(=O)O)cc2c1[nH]c1ccccc12`
Outgoing: 10

Incoming: # mortality at 600 mg/kg lookup, item `Cc1nccc2c1[nH]c1ccc([N+](=O)[O-])cc12`
Outgoing: 50

Incoming: # mortality at 600 mg/kg lookup, item CC1NCCc2c1[nH]c1ccccc21 (centres unmarked) [Tetrahydroharmane]
Outgoing: 10

Incoming: # mortality at 600 mg/kg lookup, item `Cc1nccc2c1[nH]c1cc(OC(=O)NC(C)C)ccc12`
Outgoing: 10

Incoming: # mortality at 600 mg/kg lookup, item `CCOC(=O)[C@@H]1Cc2c([nH]c3ccccc23)[C@H](C)N1`
Outgoing: 55

----------
# Corn borer Mortality (%) per record follows
- Test system: corn borers
- Condition parameters: concentration 600 mg/kg
Respond numerically; units are % and should not be typed.

Previously resolved entries follow.
Cc1nccc2c1[nH]c1cc(OC(=O)N(C)C)ccc12: 35
CCOC(=O)c1cc2c([nH]c3ccccc32)c(C)n1: 30
C/C=C/C=NNC(=O)[C@@H]1Cc2c([nH]c3ccccc23)[C@H](C)N1: 50
CCCC=NNC(=O)[C@@H]1Cc2c([nH]c3ccccc23)[C@H](C)N1: 10

// next entry
Incoming: Find Corn borer Mortality (%) (corn borers) for the entry `Cc1nnsc1C(=O)NNC(=O)[C@@H]1Cc2c([nH]c3ccccc23)[C@H](C)N1`
Outgoing: 40

----------
# mortality at 5 mg/kg per record follows
- Tested on: mosquito larvae
- Test protocol: whole plant or invertebrate
- Condition parameters: Culex pipiens, 24 h, read-out: Mosquito larvae Mortality (%)
Please report the result as a number followed by the unit.

Previously resolved entries follow.
O=C(O)[C@@H]1Cc2c([nH]c3ccccc23)[C@H](c2ccccc2)N1: 30%
Cc1nccc2c1[nH]c1ccc([N+](=O)[O-])cc12: 60%
Cc1nccc2c1[nH]c1cc(O)ccc12: 30%
C[C@@H]1N[C@H](C(=O)NC2CCCCC2)Cc2c1[nH]c1ccccc21: 10%

Incoming: Find mortality at 5 mg/kg (mosquito larvae) for the entry `CCCCNC(=O)[C@@H]1Cc2c([nH]c3ccccc23)[C@H](C)N1`
Outgoing: 60%

Incoming: Find mortality at 5 mg/kg (mosquito larvae) for the entry `C[C@@H]1N[C@H](C(=O)N/N=C/c2ccccc2)Cc2c1[nH]c1ccccc21`
Outgoing: 80%

Incoming: Find mortality at 5 mg/kg (mosquito larvae) for the entry `CCOC(=O)[C@@H]1Cc2c([nH]c3ccccc23)[C@H](C)N1`
Outgoing: 60%

----------
- System: mosquito larvae
- Test protocol: whole plant or invertebrate
- Condition parameters: Culex pipiens, 24 h, read-out: Mosquito larvae Mortality (%)
Field: label. Allowed values: class 1 (mortality at 10 mg/kg < 60%) or class 0 (mortality at 10 mg/kg >= 60%).

Previously resolved entries follow.
Cc1nccc2c1[nH]c1ccc([N+](=O)[O-])cc12: class 0
COc1ccc2c(c1)[nH]c1c(C)nccc12: class 1
C[C@@H]1N[C@H](C(=O)NC2CCCCC2)Cc2c1[nH]c1ccccc21: class 0
C[C@@H]1N[C@H](C(=O)O)Cc2c1[nH]c1ccccc21: class 1
O=C(O)[C@@H]1Cc2c([nH]c3ccccc23)[C@H](c2ccccc2)N1: class 0

Incoming: Does the reported mortality at 10 mg/kg of CC1NCCc2c1[nH]c1ccccc21 (stereo not shown) [Tetrahydroharmane] stay below 60%?
Outgoing: class 1

Incoming: Does the reported mortality at 10 mg/kg of `C[C@H]1N[C@@H](C(=O)O)Cc2c1[nH]c1ccccc21` stay below 60%?
Outgoing: class 1

Incoming: Does the reported mortality at 10 mg/kg of `Cc1nccc2c1[nH]c1cc(OC(=O)NC(C)C)ccc12` stay below 60%?
Outgoing: class 1

Incoming: Does the reported mortality at 10 mg/kg of `Cc1nccc2c1[nH]c1cc(O)ccc12` stay below 60%?
Outgoing: class 0

Incoming: Does the reported mortality at 10 mg/kg of `C[C@@H]1N[C@H](C(=O)NNC(=O)c2cccc3nnsc23)Cc2c1[nH]c1ccccc21` stay below 60%?
Outgoing: class 0

----------
# mortality at 600 mg/kg per record follows
- System: cotton bollworms
- Test protocol: whole plant or invertebrate
- Condition parameters: Helicoverpa armigera, in Gossypium hirsutum, read-out: Cotton bollworm Mortality (%)
Respond numerically; units are % and should not be typed.

Previously resolved entries follow.
Cc1nccc2c1[nH]c1cc(OC(=O)[C@@H](NC(=O)OCc3ccccc3)C(C)C)ccc12: 20
C[C@@H]1N[C@H](C(=O)O)Cc2c1[nH]c1ccccc21: 25
CC1=NCCc2c1[nH]c1ccccc21: 10
Cc1nccc2c1[nH]c1ccc([N+](=O)[O-])cc12: 35
Cc1nc(C(=O)O)cc2c1[nH]c1ccccc12: 10

Incoming: # mortality at 600 mg/kg lookup, item `COc1ccc2c(c1)[nH]c1c(C)nccc12`
Outgoing: 15

Incoming: # mortality at 600 mg/kg lookup, item COc1ccc2c3c([nH]c2c1)C(C)NCC3 (centres unmarked) [Tetrahydroharmine]
Outgoing: 10

Incoming: # mortality at 600 mg/kg lookup, item `C[C@H]1N[C@@H](C(=O)O)Cc2c1[nH]c1ccccc21`
Outgoing: 25

Incoming: # mortality at 600 mg/kg lookup, item `CCCCNC(=O)[C@@H]1Cc2c([nH]c3ccccc23)[C@H](C)N1`
Outgoing: 50

Incoming: # mortality at 600 mg/kg lookup, item `Cc1nccc2c1[nH]c1cc(OC(=O)NC(C)C)ccc12`
Outgoing: 15
